Where do the numbers come from? From PubChem BioAssay (NCI).

Measured TGI, listed per entry.
- Test system: MALME-3M melanoma
- Assay Name: NCI tumour cell line growth inhibition, 48 h

[
  {
    "Compound": "O=C1C(Cl)=C(Nc2cccc(O)c2)C(=O)N1c1cccc(Cl)c1",
    "Test System": "MALME-3M melanoma",
    "TGI": "> 100 µM"
  },
  {
    "Compound": "Oc1ccc2ccccc2c1N=Nc1ccccn1",
    "Test System": "MALME-3M melanoma",
    "TGI": "10.6 µM"
  },
  {
    "Compound": "COc1cccc2c1C(=O)c1c(O)c3c(c(O)c1C2=O)C[C@@](O)(/C(C)=N/NC(=O)c1ccccc1)C[C@@H]3OC1CC(N)C(O)C(C)O1 (stereo partly specified)",
    "Test System": "MALME-3M melanoma",
    "TGI": "1.3 µM"
  },
  {
    "Compound": "O=C1NC(=O)C(=O)C(c2nc3ccccc3s2)C1=O",
    "Test System": "MALME-3M melanoma",
    "TGI": "> 100 µM"
  },
  {
    "Compound": "CC(C)(C)OC(=O)NC(Cc1ccc(OCc2ccccc2)cn1)C(=O)N1CCSCC1 (stereo unspecified)",
    "Test System": "MALME-3M melanoma",
    "TGI": "> 100 µM"
  },
  {
    "Compound": "CC(C(=O)c1ccccc1)C1(O)C(=O)Nc2ccccc21 (stereo unspecified)",
    "Test System": "MALME-3M melanoma",
    "TGI": "> 100 µM"
  },
  {
    "Compound": "CC(=O)Nc1ccc2oc(=O)c3ccccc3c2c1",
    "Test System": "MALME-3M melanoma",
    "TGI": "> 100 µM"
  },
  {
    "Compound": "COc1cc(C(=O)Nc2c3ccccc3nc3ccccc23)cc(OC)c1OC",
    "Test System": "MALME-3M melanoma",
    "TGI": "> 100 µM"
  },
  {
    "Compound": "NNC(=O)CCC(=O)Nc1ccc(Cl)cc1Cl",
    "Test System": "MALME-3M melanoma",
    "TGI": "> 100 µM"
  },
  {
    "Compound": "CSc1nc(O)c(/C=C2\\C=Nc3ccccc32)[nH]1",
    "Test System": "MALME-3M melanoma",
    "TGI": "> 100 µM"
  },
  {
    "Compound": "N/C(=N\\c1nc2ccccc2s1)NC(=O)Nc1ccccc1Cl",
    "Test System": "MALME-3M melanoma",
    "TGI": "13.2 µM"
  }
]
